- SYSTEM NAME: Nuclear receptor subfamily 1 group I member 2 (Homo sapiens)
- PROCEDURE DETAILS: ATG_PXR_TRANS: Attagene TRANS-FACTORIAL HepG2 Assay for human Pregnane X Receptor (PXR) (AID 2283008)
Records with an inconclusive call do not appear. Activity calls are given as the source filed them. The calls were made as follows: active = hit-call score of the fitted dose curve at least 0.9, where 1 is the maximum; inconclusive = response in the unintended direction; inactive = score below 0.9.
Would you mind answering with one of these outcomes? active, inactive

Solved cases (3 shown):
C[C@@H]1C[C@@H]([C@H](O)CC2CC(=O)NC(=O)C2)C(=O)[C@@H](C)C1; inactive
O=C(Nc1ccc2[nH]ccc2c1)c1cc2cc(F)ccc2n1Cc1cccc(F)c1; inactive
ClC1=C(Cl)[C@]2(Cl)[C@H]3[C@H]([C@H]4C=C[C@H]3C4)[C@@]1(Cl)C2(Cl)Cl; active

Would you mind telling me which call this test gave `C=C(C)C(=O)[O][Sn]([CH2]CCC)([CH2]CCC)[CH2]CCC` ?
active

Please let me know the test result on file for CCC(=O)C(CC(C)N(C)C)(c1ccccc1)c1ccccc1 (stereo unspecified) .
inactive

What did the test return for CCC(C)c1cccc(C(C)CC)c1O (stereo unspecified) ?
active
